# credit: PubChem BioAssay (NCI)

- Tested on: SK-MEL-28 melanoma
- Test Details: NCI-60 one-dose screen, 48 h
- Study Conditions: 10 µM unless noted
About 83,000 compounds went through this panel and 20% of them were active in at least one assay; those are over-represented in the sample as a whole. The source made the active and inactive calls. The calls were made as follows: active = growth percent below 10; inactive = the rest.
Outcomes: t = active, f = inactive

| Molecule | Label Value |
| --- | --- |
| CCC12CCC3c4ccc(O)cc4CCC3C1CC(O)C2O (centres undefined) | f |
| FC(F)(F)Oc1ccc2c(c1)C[C@H]1C[C@@H](c3ccoc3)N2O1 | f |
| COc1cc(-c2nc(Nc3nc4ccccc4[nH]3)nc(N)c2C#N)cc(OC)c1OC | f |
| O=C1/C(=C/c2ccc(Cl)cc2)N=C(c2ccccc2)N1CCc1cccs1 | f |
| COc1nc2c(cc1S(=O)(=O)c1ccccc1)CCc1c-2cnn1-c1ccccc1Cl | f |
| COc1cccc(OC(=O)c2ccccc2)c1OC(=O)c1ccccc1 | f |
| CCOC(=O)c1c(-c2cc(OC)c(OC)c(OC)c2)csc1N | f |
| Cn1c2c(cc(S(=O)(=O)c3ccccc3)c1=O)CCc1c-2cnn1-c1cccc(Cl)c1 | f |
| CNc1ccc(Br)cc1-c1n[nH]c(=O)[nH]c1=O | f |
| CCCCc1ccc(C(O)(CCN2CC3CCC(CC3)C2)c2ccccc2)cc1 (centres undefined) | f |
| O=C(CCc1nnc2sc(/C=C\c3ccccc3)nn12)c1nc2ccccc2[nH]1 | f |
| O=[N+]([O-])c1ccc2nc(N/N=C/c3ccc(O)cc3)sc2c1 | f |
| Clc1ccc(Nc2ccnc(N3CCN(c4ccnc5cc(Cl)ccc45)CC3)n2)cc1 | f |
| O=S(=O)(Nc1ccccc1Cl)c1ccc(-c2cnc(C3CC3)o2)cc1 | f |
| Cn1c2ccccc2c2nn(Cc3ccccc3)c(=O)nc21 | f |
| COc1ccc(S(=O)(=O)ON=C2C=C(C)C(=O)C(C)=C2)cc1 | f |
| O/N=C/c1cccs1 | f |
| Cc1nc(NN)c([N+](=O)[O-])c(NN)n1 | f |
| Cc1ccc(S(=O)(=O)N2C/C(=C\c3cc(F)cc(F)c3)C(=O)/C(=C/c3cc(F)cc(F)c3)C2)cc1 | t |
| COc1ccc(-c2c3c(N)c4c(nc3nc3c2c(C)nn3-c2ccccc2)CCCC4)cc1 | f |
| Nc1ccccc1-c1n[nH]c(=O)[nH]c1=O | f |
| Clc1ccc(C2=NN(c3ccccc3)[C@H](c3cn(-c4ccccc4)nc3-c3ccccc3)C2)cc1 | f |
| O=C(NC1CC1)c1cc2n(n1)CC(c1ccccc1)N2 (centres undefined) | f |
| CN1CCc2c(Sc3ccc(C(=O)NO)cc3)c3ccccc3n2C1 | f |
| O=C(NCc1cccnc1)c1ccc([N+](=O)[O-])o1 | f |
| COc1ccc(/C=N\N2CCOCC2)cc1OC1CCCC1 | f |
| Fc1ccccc1Nc1ccc2nnc(-c3ccncc3)n2n1 | f |
| CC(C)(C)[Si](C)(C)OC1[C@@H](COC(=O)NC(=O)CCl)O[C@@H](n2cnc3c(N)ncnc32)[C@H]1O[Si](C)(C)C(C)(C)C (some centres undefined) | f |
| COC(=O)c1c2c(c(C)[n+]([O-])c1C)C(=O)C=C(NCc1cccc(OC)c1)C2=O | t |
| Cc1c(C(=O)Nc2nc(-c3ccccc3)cs2)nnn1-c1cccc2ccccc12 | f |
| COc1ccc(/C=C(\C#N)c2ccc(OC)cc2)cc1 | f |
| COc1cccc2c(=O)c3c(sc12)c(NCCN(C)C)nc1ccccc13 | f |
| Cc1ccc(NS(=O)(=O)c2ccc(-c3cnc(C4CC4)o3)cc2)cc1 | f |
| COC(=O)C1C2CC3c4[nH]c5cc(OC)ccc5c4CCN3CC2CC(OC2CCCCO2)C1OC (centres undefined) | f |
| COc1ccc(-c2c3c(N)c4c(nc3nc3c2c(C)nn3-c2ccccc2)CCCCC4)cc1 | f |
| COc1ccc(C(=O)C2=CC(=O)C(=O)C2)cc1OC | f |
| Clc1cccc(Cl)c1Nc1ccc2nnc(-c3ccncc3)n2n1 | f |
| CCN1C(=O)C2(Nc3ccccc3S2)c2cc(C)ccc21 (centres undefined) | f |
| COc1cccc(C2CC(=O)Nc3cc4c(cc32)OCO4)c1OC (centres undefined) | f |
| N#Cc1c(-c2cccc(F)c2)cc(-c2ccc(Br)s2)[nH]c1=O | f |
| O=C(CCc1nnc2sc(-c3ccccc3)nn12)c1nc2ccccc2[nH]1 | f |
| Oc1ccc(Cl)cc1CNc1nc2ccccc2[nH]1 | t |
| COc1ccc(Nc2[nH]n(C3=Nc4ccccc4Sc4ccccc43)c(=O)c2C#N)cc1 | f |
| NC(=O)c1nc2c([nH]c1=O)CCCC2 | f |
